Where do the numbers come from? From patent US10907134B2.

- assay.text: Substrate specificities of KAZ mutants (ZZ-fused, crude enzyme), bis-CTZ
- Type: biochemical
- applied.conditions: 1 μg substrate, maximum intensity of luminescence
Rule: Relative Luminescence Activity bis-CTZ Imax below 10 gives Met, anything at or above gives Not met.

{"columns": ["molecule", "classification"],
 "data": [
  ["KAZ-A54I-Y138I: KAZ mutant with two amino acid substitutions A54I and Y138I, SEQ ID NO: 14 (protein) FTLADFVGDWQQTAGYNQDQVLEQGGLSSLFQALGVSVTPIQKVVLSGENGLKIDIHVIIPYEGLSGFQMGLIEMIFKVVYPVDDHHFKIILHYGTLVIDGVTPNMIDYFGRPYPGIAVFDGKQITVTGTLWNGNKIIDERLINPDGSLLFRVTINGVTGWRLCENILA", "Met"],
  ["KAZ-V44I: KAZ with single amino acid substitution V44I, SEQ ID NO: 4 (protein) FTLADFVGDWQQTAGYNQDQVLEQGGLSSLFQALGVSVTPIQKIVLSGENGLKADIHVIIPYEGLSGFQMGLIEMIFKVVYPVDDHHFKIILHYGTLVIDGVTPNMIDYFGRPYPGIAVFDGKQITVTGTLWNGNKIYDERLINPDGSLLFRVTINGVTGWRLCENILA", "Met"],
  ["KAZ-Y138I: KAZ with single amino acid substitution Y138I, SEQ ID NO: 8 (protein) FTLADFVGDWQQTAGYNQDQVLEQGGLSSLFQALGVSVTPIQKVVLSGENGLKADIHVIIPYEGLSGFQMGLIEMIFKVVYPVDDHHFKIILHYGTLVIDGVTPNMIDYFGRPYPGIAVFDGKQITVTGTLWNGNKIIDERLINPDGSLLFRVTINGVTGWRLCENILA", "Met"],
  ["KAZ-V44I-A54I: KAZ mutant with two amino acid substitutions V44I and A54I, SEQ ID NO: 10 (protein) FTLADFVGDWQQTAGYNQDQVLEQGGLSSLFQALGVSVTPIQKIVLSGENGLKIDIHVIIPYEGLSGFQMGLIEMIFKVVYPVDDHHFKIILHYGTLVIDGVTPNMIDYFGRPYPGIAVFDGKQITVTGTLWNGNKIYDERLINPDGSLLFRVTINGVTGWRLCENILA", "Met"]
]}

Consider the molecule KAZ-V44I-A54I-Y138I: KAZ mutant with three amino acid substitutions V44I, A54I and Y138I, SEQ ID NO: 16 (protein) FTLADFVGDWQQTAGYNQDQVLEQGGLSSLFQALGVSVTPIQKIVLSGENGLKIDIHVIIPYEGLSGFQMGLIEMIFKVVYPVDDHHFKIILHYGTLVIDGVTPNMIDYFGRPYPGIAVFDGKQITVTGTLWNGNKIIDERLINPDGSLLFRVTINGVTGWRLCENILA . Is its Relative Luminescence Activity bis-CTZ Imax strictly less than 10?
Not met
